src = patent US20170342349A1

Assay: Inhibitor binding assay of SEQ ID NO 3 variants, Inhibitor 1, in Model B detergent
Assay type: biochemical
Conditions: in Model B relative to SEQ ID NO 3 comprising S173P + S175P + F180Y; relative Ki, IF>1.0 = lower Ki
assay.metric: inhibitor 1 binding constant improvement factors (IF)

molecule: S114F + S173P + S175P + F180Y: protease variant of SEQ ID NO 3 (protein, listed as Bacillus sp.) AVPSTQTPWGIKSIYNDQSITKTTGGSGIKVAVLDTGVYTSHLDLAGSAEQCKDFTQSNPLVDGSCTDRQGHGTHVAGTVLAHGGSNGQGVYGVAPQAKLWAYKVLGDNGSGYFDDIAAAIRHVADEASRTGSKVVINMSLGSSAKDSLIASAVDYAYGKGVLIVAAAGNSGPGPNTIGYPGGLVNAVAVAALENVQQNGTYRVADFSSRGNPATAGDYIIQERDIEVSAPGASVESTWYTGGYNTISGTSMATPHVAGLAAKIWSANTSLSHSQLRTELQNRAKVYDIKGGIGAGTGDDYASGFGYPRVK
reported.value: 1.41
//
molecule: S173P + S175P + I178Y + F180Y: protease variant of SEQ ID NO 3 (protein, listed as Bacillus sp.) AVPSTQTPWGIKSIYNDQSITKTTGGSGIKVAVLDTGVYTSHLDLAGSAEQCKDFTQSNPLVDGSCTDRQGHGTHVAGTVLAHGGSNGQGVYGVAPQAKLWAYKVLGDNGSGYSDDIAAAIRHVADEASRTGSKVVINMSLGSSAKDSLIASAVDYAYGKGVLIVAAAGNSGPGPNTYGYPGGLVNAVAVAALENVQQNGTYRVADFSSRGNPATAGDYIIQERDIEVSAPGASVESTWYTGGYNTISGTSMATPHVAGLAAKIWSANTSLSHSQLRTELQNRAKVYDIKGGIGAGTGDDYASGFGYPRVK
reported.value: 2.15
//
molecule: K146S + S173P + S175P + F180Y: protease variant of SEQ ID NO 3 (protein, listed as Bacillus sp.) AVPSTQTPWGIKSIYNDQSITKTTGGSGIKVAVLDTGVYTSHLDLAGSAEQCKDFTQSNPLVDGSCTDRQGHGTHVAGTVLAHGGSNGQGVYGVAPQAKLWAYKVLGDNGSGYSDDIAAAIRHVADEASRTGSKVVINMSLGSSASDSLIASAVDYAYGKGVLIVAAAGNSGPGPNTIGYPGGLVNAVAVAALENVQQNGTYRVADFSSRGNPATAGDYIIQERDIEVSAPGASVESTWYTGGYNTISGTSMATPHVAGLAAKIWSANTSLSHSQLRTELQNRAKVYDIKGGIGAGTGDDYASGFGYPRVK
reported.value: 1.13
